- System: Escherichia coli
- EXPERIMENT DESCRIPTION: Antibacterial activity against Escherichia coli LCB0012 by broth micro dilution method
- Format: functional
PROPERTY MEASURED: MIC90

> print(dat)
                                   compound  measured.result
1  COc1ccc(C2C(C)C(=O)C(C)C(c3ccc(OC)cc3)N2C(=O)Cn2cnc3ccccc32)cc1 (stereo unspecified)        128 µg/mL
2  COc1ccc(C2CC(=O)C(C)C(c3ccc(OC)cc3)N2C(=O)Cn2cnc3ccccc32)cc1 (stereo unspecified)        128 µg/mL
3  N[C@@H]1[C@H]2CN(c3nc4c(cc3F)c(=O)c(C(=O)O)cn4-c3ccc(F)cc3F)C[C@@H]12   < 0.0625 µg/mL
4  Cc1ccc(C2CC(=O)C(C)C(c3ccc(C)cc3)N2C(=O)Cn2cnc3ccccc32)cc1 (stereo unspecified)        128 µg/mL
5  C=Cc1ccc(S(=O)(=O)OC2=C(C(=O)OCC)C(c3ccccc3)N(C(=O)CCl)C(c3ccccc3)C2)cc1 (stereo unspecified)        128 µg/mL
6  CC(=O)NC[C@H]1CN(c2ccc(N3CCOCC3)c(F)c2)C(=O)O1         64 µg/mL

----------
- System: Staphylococcus aureus
- EXPERIMENT DESCRIPTION: Antibacterial activity against Staphylococcus aureus by broth micro dilution method
- Type: functional
# Lookup of reported MIC90 keyed by entry
PROPERTY MEASURED: MIC90 (µg/mL)

> print(dat)
                                   compound  property.measured  relation.sign  measured.result
1  CCOC(=O)C1=C(O)CC(c2ccccc2)N(C(=O)CCl)C1c1ccccc1 (configuration not stated)              MIC90              =               32
2  CCOC(=O)C1=C(O)CC(c2ccccc2)N(C(=O)Cn2cnc3ccccc32)C1c1ccccc1 (configuration not stated)              MIC90              =               32
3  COc1ccccc1C1C(C)C(=O)C(C)C(c2ccccc2OC)N1C(=O)Cn1cnc2ccccc21 (configuration not stated)              MIC90              =               32
4  N[C@@H]1[C@H]2CN(c3nc4c(cc3F)c(=O)c(C(=O)O)cn4-c3ccc(F)cc3F)C[C@@H]12              MIC90              <           0.0625
5  CCOC(=O)C1=C(OS(=O)(=O)c2ccc([N+](=O)[O-])cc2)CC(c2ccccc2)N(C(=O)CCl)C1c1ccccc1 (configuration not stated)              MIC90              =               16
6  CCOC(=O)C1=C(OS(=O)(=O)c2cccs2)CC(c2ccccc2)N(C(=O)CCl)C1c1ccccc1 (configuration not stated)              MIC90              =               32
7  CC(=O)NC[C@H]1CN(c2ccc(N3CCOCC3)c(F)c2)C(=O)O1              MIC90              =                1

----------
- Test system: Staphylococcus epidermidis
- EXPERIMENT DESCRIPTION: Antibacterial activity against methicillin-resistant Staphylococcus epidermidis at 128 ug/mL by broth micro dilution method
- Assay type: functional, organism-based
Calls of active or inactive are those of the source. The rule behind the calls is not given here.
PROPERTY MEASURED: Activity

> print(dat)
                                    compound  property.measured  measured.result
 1  C=Cc1ccc(S(=O)(=O)OC2=C(C(=O)OCC)C(c3ccccc3)N(C(=O)CCl)C(c3ccccc3)C2)cc1 (stereo not given)           Activity         inactive
 2  COc1ccc(C2C(C)C(=O)C(C)C(c3ccc(OC)cc3)N2C(=O)Cn2cnc3ccccc32)cc1 (stereo not given)           Activity         inactive
 3  COc1ccccc1C1C(C)C(=O)C(C)C(c2ccccc2OC)N1C(=O)Cn1cnc2ccccc21 (stereo not given)           Activity         inactive
 4  CCOC(=O)C1=C(O)CC(c2ccccc2)N(C(=O)Cn2cnc3ccccc32)C1c1ccccc1 (stereo not given)           Activity         inactive
 5  CCOC(=O)C1=C(OS(=O)(=O)c2cccc([N+](=O)[O-])c2)CC(c2ccccc2)N(C(=O)CCl)C1c1ccccc1 (stereo not given)           Activity         inactive
 6  Cc1ccc(C2C(C)C(=O)C(C)C(c3ccc(C)cc3)N2C(=O)Cn2cnc3ccccc32)cc1 (stereo not given)           Activity         inactive
 7  COc1ccc(C2CC(=O)C(C)C(c3ccc(OC)cc3)N2C(=O)Cn2cnc3ccccc32)cc1 (stereo not given)           Activity         inactive
 8  Cc1ccc(C2CC(=O)C(C)C(c3ccc(C)cc3)N2C(=O)Cn2cnc3ccccc32)cc1 (stereo not given)           Activity         inactive
 9  COc1cc(OC)cc(C2CC(=O)C(C)C(c3cc(OC)cc(OC)c3)N2C(=O)Cn2cnc3ccccc32)c1 (stereo not given)           Activity         inactive
10  CCOC(=O)C1=C(OS(=O)(=O)c2ccccc2[N+](=O)[O-])CC(c2ccccc2)N(C(=O)CCl)C1c1ccccc1 (stereo not given)           Activity         inactive

----------
- Test system: Staphylococcus aureus
- EXPERIMENT DESCRIPTION: Antibacterial activity against methicillin-resistant Staphylococcus aureus by broth micro dilution method
- Type: functional
PROPERTY MEASURED: MIC90 (µg/mL)

> print(dat)
                                   compound          system.tested  measured.result
1  CCOC(=O)C1=C(OS(=O)(=O)c2cccs2)CC(c2ccccc2)N(C(=O)CCl)C1c1ccccc1 (stereo not drawn)  Staphylococcus aureus               64
2  COc1ccc(C2C(C)C(=O)C(C)C(c3ccc(OC)cc3)N2C(=O)Cn2cnc3ccccc32)cc1 (stereo not drawn)  Staphylococcus aureus              128
3  CC(=O)NC[C@H]1CN(c2ccc(N3CCOCC3)c(F)c2)C(=O)O1  Staphylococcus aureus                2
4  CCOC(=O)C1=C(O)CC(c2ccccc2)N(C(=O)CCl)C1c1ccccc1 (stereo not drawn)  Staphylococcus aureus               64
5  N[C@@H]1[C@H]2CN(c3nc4c(cc3F)c(=O)c(C(=O)O)cn4-c3ccc(F)cc3F)C[C@@H]12  Staphylococcus aureus                1
6  CCOC(=O)C1=C(OS(=O)(=O)c2ccc([N+](=O)[O-])cc2)CC(c2ccccc2)N(C(=O)CCl)C1c1ccccc1 (stereo not drawn)  Staphylococcus aureus               64
7  Cc1ccc(C2C(C)C(=O)C(C)C(c3ccc(C)cc3)N2C(=O)Cn2cnc3ccccc32)cc1 (stereo not drawn)  Staphylococcus aureus               64
8  CCOC(=O)C1=C(OS(=O)(=O)c2cccc([N+](=O)[O-])c2)CC(c2ccccc2)N(C(=O)CCl)C1c1ccccc1 (stereo not drawn)  Staphylococcus aureus              128

----------
- Tested on: Mycobacterium tuberculosis
- EXPERIMENT DESCRIPTION: Antitubercular potency, ratio of Rifampicin MIC to drug MIC against Mycobacterium tuberculosis H37Rv ATCC 27294
- Assay type: functional
PROPERTY MEASURED: Ratio

> print(dat)
                                   compound  property.measured  measured.result
1  CCOC(=O)C1=C(O)CC(c2ccccc2)N(C(=O)CCl)C1c1ccccc1 (stereo unspecified)              Ratio              200
2  CCOC(=O)C1=C(OS(=O)(=O)c2ccc([N+](=O)[O-])cc2)CC(c2ccccc2)N(C(=O)CCl)C1c1ccccc1 (stereo unspecified)              Ratio              200
3  CCOC(=O)C1=C(OS(=O)(=O)c2cccs2)CC(c2ccccc2)N(C(=O)CCl)C1c1ccccc1 (stereo unspecified)              Ratio              100
4  COc1ccc(C2C(C)C(=O)C(C)C(c3ccc(OC)cc3)N2C(=O)Cn2cnc3ccccc32)cc1 (stereo unspecified)              Ratio               50
5  CCOC(=O)C1=C(O)CC(c2ccccc2)N(C(=O)Cn2cnc3ccccc32)C1c1ccccc1 (stereo unspecified)              Ratio              200
6  COc1ccccc1C1C(C)C(=O)C(C)C(c2ccccc2OC)N1C(=O)Cn1cnc2ccccc21 (stereo unspecified)              Ratio               25
